Experiment: Solubility in SGF
Format: physicochemical
QUANTITY MEASURED: solubility (µg/mL)
Output spec: scalar in µg/mL, unitless text.

Lab book: solubility of `COCc1cnc(N2CCC([C@H]3C[C@H]3COCc3ccc(S(C)(=O)=O)cc3F)CC2)nc1` noted as 870

----------
Target: Glucose-dependent insulinotropic receptor (Mus musculus)
Sequence (Q7TQP3 whole entry): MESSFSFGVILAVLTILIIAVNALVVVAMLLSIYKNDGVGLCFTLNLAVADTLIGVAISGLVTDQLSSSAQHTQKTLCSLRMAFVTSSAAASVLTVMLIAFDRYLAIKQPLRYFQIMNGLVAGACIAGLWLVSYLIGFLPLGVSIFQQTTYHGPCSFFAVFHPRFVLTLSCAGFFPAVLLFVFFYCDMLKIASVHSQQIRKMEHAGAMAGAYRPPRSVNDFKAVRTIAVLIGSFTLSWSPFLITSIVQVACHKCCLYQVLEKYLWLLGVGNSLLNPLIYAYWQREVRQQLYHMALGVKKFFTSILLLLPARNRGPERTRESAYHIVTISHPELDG
Assay: Agonist activity at mouse GPR119 by cAMP assay
QUANTITY MEASURED: pEC50
Notebook: values listed as pEC50 are -log10 of the concentration (mol/L).

Below: 9 compounds and their reported pEC50.
[[record]]
input_smiles = "CS(=O)(=O)c1ccc(COC[C@@H]2C[C@@H]2C2CCN(c3ncc(Cl)cn3)CC2)nc1"
assay_result = 8.44

[[record]]
input_smiles = "CC1(OC(=O)N2CCC([C@H]3C[C@H]3COCc3ccc(-n4cnnn4)cc3F)CC2)CC1"
assay_result = 7.82

[[record]]
input_smiles = "CCc1cnc(N2CCC([C@H]3C[C@H]3COCc3ccc(S(C)(=O)=O)c(F)c3)CC2)nc1"
assay_result = 8.26

[[record]]
input_smiles = "CS(=O)(=O)c1ccc(COC[C@@H]2C[C@@H]2C2CCN(c3ncc(F)cn3)CC2)cc1F"
assay_result = 8.35

[[record]]
input_smiles = "CCOc1cnc(N2CCC([C@H]3C[C@H]3COCc3ccc(S(C)(=O)=O)c(F)c3)CC2)nc1"
assay_result = 8.64

[[record]]
input_smiles = "CC(C)c1noc(N2CCC([C@H]3C[C@H]3COCc3ccc(S(C)(=O)=O)cc3F)CC2)n1"
assay_result = 8.00

[[record]]
input_smiles = "COc1cnc(N2CCC([C@H]3C[C@H]3COCc3ccc(S(C)(=O)=O)cc3F)CC2)nc1"
assay_result = 8.85

[[record]]
input_smiles = "O=S(=O)(CCO)c1ccc(COC[C@@H]2C[C@@H]2C2CCN(c3ncc(Cl)cn3)CC2)c(F)c1"
assay_result = 8.77

[[record]]
input_smiles = "COCc1cnc(N2CCC([C@H]3C[C@H]3COCc3cc(F)c(S(C)(=O)=O)c(F)c3)CC2)nc1"
assay_result = 8.24


Attention now shifts to the item below.
pEC50 reported for this compound `COCc1cnc(N2CCC([C@H]3C[C@H]3COCc3ccc(CC(=O)N4CCOCC4)cc3F)CC2)nc1` : 8.43
